Listed below: pEC50 values for each entry.
- Subject of test: human PPARα (Homo sapiens)
- Construct: amino acids S167-Y468
- Sequence (Q07869 167-468): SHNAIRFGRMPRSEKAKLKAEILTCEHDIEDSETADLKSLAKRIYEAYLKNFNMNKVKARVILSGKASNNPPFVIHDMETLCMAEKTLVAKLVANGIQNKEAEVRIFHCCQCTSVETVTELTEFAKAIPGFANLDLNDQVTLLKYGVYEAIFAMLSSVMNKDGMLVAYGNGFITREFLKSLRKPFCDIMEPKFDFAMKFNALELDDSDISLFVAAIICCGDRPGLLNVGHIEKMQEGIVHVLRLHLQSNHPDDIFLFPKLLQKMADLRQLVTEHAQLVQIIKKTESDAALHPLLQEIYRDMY
- Protocol text: Cellular PPARalpha assay (stably transfected HEK PPARalpha reporter cell line, luciferase)
- Test parameters: 24 h incubation, luciferase readout
For clarity, pEC50 is expressed as the negative log10 of concentration in mol/L.

Fill in reported pEC50 for this entry: Cc1ccc(-c2nc(CO[C@@H]3CCC[C@H](COC4(C(=O)O)CCCC4)C3)c(C)o2)cc1 (relative stereo)
8.37

Fill in reported pEC50 for this entry: Cc1ccc(-c2nc(CO[C@@H]3CCC[C@H](COC(Cc4ccccc4)C(=O)O)C3)c(C)o2)cc1 (relative stereo)
7.60
